- methodDescription: qHTS assay to identify small molecule antagonists of the estrogen related receptor (ERR) signaling pathway from Tox21 library - cell viability counter screen (AID 1224834); further: nearly all actives have a fitted effect of over 30% in size
- testConditions: ERR reporter cells viability, CellTiter-Fluor, 17.5 h; series mostly up to 92.4 µM
Records with an inconclusive call do not appear. Calls of active or inactive are those of the source. The call rests on the fitted dose curve; in most records, active means well fitted cell-killing curve with a large enough effect in the repeat runs; inconclusive means weak or mixed curves; inactive means flat fitted curve, though single readings scatter.
metricName: viability change, negative = cytotoxic

Some molecules with recorded viability change, negative = cytotoxic:
O=C(NCCc1c[nH]c2ccccc12)c1cccnc1; inactive
CC(=O)OC(C)OC(=O)C(C)c1ccc(-c2ccccc2)c(F)c1 (configuration not stated); inactive
CCNC(=O)C1CC(C)CCC1C(C)C (configuration not stated); inactive
C[C@H](N)[C@H](O)c1cccc(O)c1; inactive
CC(=O)N[C@@H](CCC(=O)O)C(=O)O; inactive

Ask: // viability change, negative = cytotoxic lookup, key: `CCCOC(OCCC)OCCC`
Result: inactive

Ask: # get_value(readout='viability change, negative = cytotoxic', item= CC(S)C(=O)NCC(=O)O (configuration not stated) )
Result: inactive
